experiment: in vitro; conditions: PAMPA, PAMPA-BBB Pe(10^-6 cm/sec), Table S3: compounds exhibiting low PAMPA-BBB permeability
Measured Papp values are reported for all entries that follow.

## Task Looking for the measured Papp of `COc1ccc2cc1Oc1ccc(cc1)C[C@H]1c3c(cc4c(c3Oc3cc5c(cc3OC)CCN(C)[C@@H]5C2)OCO4)CCN1C` , can you help?
## Result < 1 ×10⁻⁶ cm/s

---

assay: in vitro; settings: PAMPA, PAMPA-BBB Pe(10^-6 cm/sec), Table S3: compounds exhibiting low PAMPA-BBB permeability
Measured Papp accompanies every entry in the list below.
Write the value in ×10⁻⁶ cm/s as a bare number.

INSERT INTO assay_data (compound, unit_of_measure, measured_value) VALUES
  ('COc1ccc2[nH]c3c(c2c1)CCNC3', '×10⁻⁶ cm/s', 2.5);

## Task Name the recorded Papp for `CCNc1nc(N)nc(Cl)n1` .
## Result 1.1

## Task Quick one: Papp for `O=C(CCc1ccc(O)cc1)c1c(O)cc(O)cc1O[C@@H]1O[C@H](CO)[C@@H](O)[C@H](O)[C@H]1O` ?
## Result 1.4

## Task What value of measured Papp is listed for `COc1cc(-c2coc3cc(O[C@@H]4O[C@H](CO)[C@@H](O)[C@H](O)[C@H]4O)c(OC)c(O)c3c2=O)cc(O)c1OC` ?
## Result 1.3

## Task For the compound `CC1=C(O)C(=O)[C@@H]2O[C@@H]2C1=O` , what Papp is on record?
## Result 6.8

## Task Using the record for `CNCCc1c[nH]c2ccc(O)cc12` , report its Papp.
## Result 7.1

## Task Looking for the measured Papp of `O=C(/C=C/c1ccc(O)c(O)c1)c1ccc(O[C@@H]2O[C@H](CO)[C@@H](O)[C@H](O)[C@H]2O)c(O)c1O` , can you help?
## Result 1.6

## Task Given the compound `Cc1cc(O)c2c(=O)c3c(O)cc(O)c4c5c(O)cc(O)c6c(=O)c7c(O)cc(C)c8c1c2c(c34)c(c78)c65` , what is its reported Papp?
## Result 6.4

---

Listed here: items and their measured PAMPA-BBB Pe.
conditions: Table 1; 60 min, room temperature, 0.05 mM

Worked cases, answers included:
INSERT INTO results (compound, observed_property, measured_value) VALUES
  ('COc1ccc(/C=C\c2cc(OC)c(OC)c(OC)c2)cc1O', 'PAMPA-BBB Pe', '315.59 10 × 10^− 6 cm/sec'),
  ('C=CC[C@@H]1/C=C(\C)C[C@H](C)C[C@H](OC)[C@H]2O[C@@](O)(C(=O)C(=O)N3CCCC[C@H]3C(=O)O[C@H](/C(C)=C/[C@@H]3CC[C@@H](O)[C@H](OC)C3)[C@H](C)[C@@H](O)CC1=O)[C@H](C)C[C@@H]2OC [Tacrolimus, reference compound]', 'PAMPA-BBB Pe', '154.13 10 × 10^− 6 cm/sec'),
  ('CC1=CC(=O)c2c(O)cccc2C1=O', 'PAMPA-BBB Pe', '68.8 10 × 10^− 6 cm/sec');

--- query ---
## Task Give the measured PAMPA-BBB Pe of `COc1ccc(-c2cc(=O)c3ccccc3o2)cc1OC` .
## Result 249.21 10 × 10^− 6 cm/sec
